target: UniProt:P49430; test: Inhibition of thromboxane formation (thromboxane synthetase) in platelets at 10e-4 M; assay type: functional
experimental endpoint: inhibition (%)
Field format: number, assumed %, no unit text.

A selection of reference data follows.
1) O=C1c2cccc(Cl)c2C(=O)N1CCCCn1ccnc1: 100
2) O=C1c2cccc(Br)c2C(=O)N1CCCCn1ccnc1: 100
3) O=C1c2ccccc2C(=O)N1CCCCCCCCn1ccnc1: 100
4) O=C1c2ccccc2C(=O)N1CCCCCCn1ccnc1: 100
5) O=C1c2ccc(Cl)c(Cl)c2C(=O)N1CCCCn1ccnc1: 100

Return reported inhibition. Input compound: O=C1c2ccccc2C(=O)N1CC#CCn1ccnc1
100

Return reported inhibition. Input compound: O=C1c2cccc(Cl)c2C(=O)N1CCCn1ccnc1
92

Return reported inhibition. Input compound: O=C1c2ccc(Cl)c(Cl)c2C(=O)N1CCCn1cncn1
73

Return reported inhibition. Input compound: O=C1c2ccccc2C(=O)N1CCCCCCCCCCn1ccnc1
92

Return reported inhibition. Input compound: CC(CCn1ccnc1)N1C(=O)c2cccc(Br)c2C1=O (stereo not drawn)
89

Return reported inhibition. Input compound: O=C1c2cccc(Br)c2C(=O)N1CCCn1cncn1
76

Return reported inhibition. Input compound: O=C1c2cccc(Br)c2C(=O)N1CCCCCn1ccnc1
87

Return reported inhibition. Input compound: O=C1c2ccc(Cl)c(Cl)c2C(=O)N1CCCn1ccnc1
100

----------
Biological target: Thromboxane-A synthase (Rattus norvegicus)
Sequence (whole entry): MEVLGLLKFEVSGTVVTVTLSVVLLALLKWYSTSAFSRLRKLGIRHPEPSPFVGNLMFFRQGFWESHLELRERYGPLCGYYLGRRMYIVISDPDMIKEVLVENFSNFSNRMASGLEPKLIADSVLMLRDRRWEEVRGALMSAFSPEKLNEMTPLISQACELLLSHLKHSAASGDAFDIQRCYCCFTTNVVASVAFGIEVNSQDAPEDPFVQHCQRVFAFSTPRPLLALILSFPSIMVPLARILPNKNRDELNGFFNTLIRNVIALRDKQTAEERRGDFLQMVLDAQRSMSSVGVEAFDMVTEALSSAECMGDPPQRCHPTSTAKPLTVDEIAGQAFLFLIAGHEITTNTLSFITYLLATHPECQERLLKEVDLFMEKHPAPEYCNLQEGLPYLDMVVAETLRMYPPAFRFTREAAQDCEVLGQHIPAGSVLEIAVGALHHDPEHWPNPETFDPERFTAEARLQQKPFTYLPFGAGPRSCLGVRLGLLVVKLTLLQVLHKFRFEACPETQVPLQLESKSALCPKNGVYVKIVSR
Assay: Inhibition of thromboxane formation in platelets at a concentration of 10e-4 M
Format: functional
I would appreciate it if you labelled entries class 1 when inhibition is 70% or higher, otherwise class 0.

The following molecules have reported results that may help.
1) O=C1c2ccccc2C(=O)N1CCCCCn1cncn1: class 1
2) Cc1cn(CCCCN2C(=O)c3ccccc3C2=O)cn1: class 1
3) O=C1c2ccccc2C(=O)N1C/C=C/Cn1ccnc1: class 1
4) CCc1nccn1CCCCN1C(=O)c2ccccc2C1=O: class 0

Given Cc1nccn1CCCCN1C(=O)c2ccccc2C1=O , state whether its inhibition is at least 70%.
class 0

Given O=C1c2ccccc2C(=O)N1CCCCn1ccnc1 , state whether its inhibition is at least 70%.
class 1

Taken from ChEMBL document CHEMBL1123184.
